# SYSTEM UNDER TEST: Carboxypeptidase A1 (Bos taurus, UniProt P00730)
# Sequence (P00730 whole entry): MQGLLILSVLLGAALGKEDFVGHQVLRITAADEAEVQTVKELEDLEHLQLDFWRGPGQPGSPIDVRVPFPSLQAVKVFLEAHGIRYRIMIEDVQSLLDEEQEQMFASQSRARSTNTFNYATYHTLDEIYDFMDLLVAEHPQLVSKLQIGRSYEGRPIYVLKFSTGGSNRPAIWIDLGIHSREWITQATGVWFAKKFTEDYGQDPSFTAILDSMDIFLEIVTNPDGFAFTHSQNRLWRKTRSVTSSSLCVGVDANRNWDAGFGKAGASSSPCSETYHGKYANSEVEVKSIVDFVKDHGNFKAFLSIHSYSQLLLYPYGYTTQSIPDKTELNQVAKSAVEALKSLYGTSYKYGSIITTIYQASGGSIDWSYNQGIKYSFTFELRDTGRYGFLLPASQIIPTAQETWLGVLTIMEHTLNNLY
Quick reference for Ki among some compounds
Lab book: enter the figure in nM, no units written.

COMPOUND: CCCNC(CS)C(=O)O (stereo not drawn)
RECORDED RESULT: 5600

COMPOUND: O=C(O)[C@@H](CS)NC1CCCCC1
RECORDED RESULT: 2900

COMPOUND: CN(Cc1ccccc1)C(CS)C(=O)O (stereo not drawn)
RECORDED RESULT: 12000

## Task Suppose we examine the compound CC(C)N[C@@H](CS)C(=O)O ; what Ki value has been reported?
## Result 2900

## Task Suppose we examine the compound O=C(O)[C@@H](CS)NCCc1ccccc1 ; what Ki value has been reported?
## Result 55

## Task Suppose we examine the compound O=C(O)C(CS)CCCc1ccccc1 (stereo not drawn) ; what Ki value has been reported?
## Result 1350

## Task Suppose we examine the compound CC(C)NC(CS)C(=O)O (stereo not drawn) ; what Ki value has been reported?
## Result 1100

## Task Suppose we examine the compound N[C@H](CS)C(=O)O ; what Ki value has been reported?
## Result 2300

## Task Suppose we examine the compound O=C(O)[C@@H](CS)NCc1ccccc1 ; what Ki value has been reported?
## Result 190

## Task Suppose we examine the compound CNC(CS)C(=O)O (stereo not drawn) ; what Ki value has been reported?
## Result 2400

## Task Suppose we examine the compound O=C(O)C(CS)Nc1ccccc1 (stereo not drawn) ; what Ki value has been reported?
## Result 5500
